# assay.method.text: Inhibition of VGLUT
experimental.readout: Ki (nM)
Use nM as the unit, but write only the number.

Challenge: What value of Ki has been recorded for this entry: O=C(O)c1c(Cl)c(Cl)c(Cl)c(Cl)c1-c1c2cc(I)c(=O)c(I)c-2oc2c(I)c(O)c(I)cc12 [ROSE BENGAL SODIUM]
Response given: 19
